assayed_system: human TRPM8 receptor (Homo sapiens)
Construct: expressed in transfected cells; host or cells: HEK293, stably transfected, tetracycline-inducible expression
experimental_details: Assay on TRPM8 modulators: Ca2+-sensitive dye (Fluo-4) fluorescence in HEK293-TRPM8 test cells
Format: cell-based
Set-up: concentration or dose not given beside the values
measurement_setup: HEK293 cells recombinantly expressing human TRPM8
outcome_measure: relative TRPM8 activation (%)

CC(Sc1nnc(-c2ccccc2)c(-c2ccccc2)n1)C(=O)NCc1ccco1 (stereo not drawn)    53
O=C(CSc1nc(-c2ccccc2)c(-c2ccccc2)o1)NC1CCC1    3
CNC(=O)[C@H]1C[C@@H]1c1nc(-c2ccccc2)c(-c2ccccc2)o1 (racemic)    5

A. CNC(=O)C(C)Sc1nnc(-c2ccc(OC)cc2)c(-c2ccc(OC)cc2)n1 (stereo not drawn)
B. CC1CCCCC1NC(=O)CSc1nc(-c2ccccc2)c(-c2ccccc2)o1 (stereo not drawn)
**Q:** Pick one, A or B : lowest reported relative TRPM8 activation. Answer by stating the label of the chosen item.
**A:** B

====

assayed_system: human TRPM8 receptor (Homo sapiens, UniProt Q7Z2W7)
Construct: expressed in transfected cells; host or cells: HEK293, stably transfected, tetracycline-inducible expression
Sequence (Q7Z2W7 whole entry): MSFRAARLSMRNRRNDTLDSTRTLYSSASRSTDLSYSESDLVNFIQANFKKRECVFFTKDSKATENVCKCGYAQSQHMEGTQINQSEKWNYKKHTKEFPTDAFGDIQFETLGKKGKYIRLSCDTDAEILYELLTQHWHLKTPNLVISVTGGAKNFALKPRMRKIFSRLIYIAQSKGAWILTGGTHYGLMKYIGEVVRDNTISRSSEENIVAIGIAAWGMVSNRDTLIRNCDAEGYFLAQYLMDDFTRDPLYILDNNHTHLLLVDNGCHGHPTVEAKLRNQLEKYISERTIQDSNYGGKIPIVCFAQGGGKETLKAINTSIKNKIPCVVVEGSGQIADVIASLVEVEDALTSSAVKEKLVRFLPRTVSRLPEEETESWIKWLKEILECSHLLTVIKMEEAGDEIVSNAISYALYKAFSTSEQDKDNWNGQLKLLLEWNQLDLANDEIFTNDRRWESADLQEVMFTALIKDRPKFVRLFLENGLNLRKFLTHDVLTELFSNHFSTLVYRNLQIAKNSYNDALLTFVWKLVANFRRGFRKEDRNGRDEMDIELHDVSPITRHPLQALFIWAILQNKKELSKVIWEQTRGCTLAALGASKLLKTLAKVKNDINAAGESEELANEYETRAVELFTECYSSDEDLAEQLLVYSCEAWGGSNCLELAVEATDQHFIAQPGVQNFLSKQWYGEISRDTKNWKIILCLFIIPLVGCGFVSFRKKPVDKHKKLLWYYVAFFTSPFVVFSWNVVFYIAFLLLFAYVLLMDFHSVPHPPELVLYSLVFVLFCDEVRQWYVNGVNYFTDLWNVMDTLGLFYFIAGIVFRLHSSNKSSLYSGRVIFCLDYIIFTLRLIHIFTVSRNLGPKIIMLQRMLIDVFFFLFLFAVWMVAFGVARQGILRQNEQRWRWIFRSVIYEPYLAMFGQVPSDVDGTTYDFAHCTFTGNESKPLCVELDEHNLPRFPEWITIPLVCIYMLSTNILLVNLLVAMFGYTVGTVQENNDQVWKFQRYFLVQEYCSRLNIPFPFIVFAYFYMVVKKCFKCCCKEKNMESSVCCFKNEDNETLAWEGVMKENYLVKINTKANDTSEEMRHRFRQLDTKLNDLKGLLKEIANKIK
experimental_details: Assay on TRPM8 modulators: Ca2+-sensitive dye (Fluo-4) fluorescence in HEK293-TRPM8 test cells
Format: cell-based
measurement_setup: Table 5; HEK293-TRPM8 cells; read-out: TRPM8 EC50
outcome_measure: EC50 (nM)

O=C(CSc1nnc(-c2ccccc2)c(-c2ccccc2)n1)N1CCC1    280

P. CNC(=O)CSc1cnc(-c2ccccc2)c(-c2ccccc2)n1
Q. CC(Sc1nnc(-c2ccccc2)c(-c2ccccc2)n1)C(=O)N1CCCC1 (stereo not drawn)
**Q:** Quick check, higher EC50 between P and Q ? Answer by stating the label of the chosen item.
**A:** Q

====

Listed here are compounds together with their documented Sensory evaluation.
experimental_details: Sensory tasting of cooling intensity by trained panelists, WS-3 as reference
Type: in vivo, human
measurement_setup: Table 6; cooling intensity, 5 ppm in 5% sugar solution, rated after one minute, scale 1 (very weak) to 9 (very strong)
Respond using a number only.

Look over these answered cases.
CNC(=O)C(C)Sc1nc(-c2ccccc2)c(-c2ccccc2)o1 (centres unmarked)    5.4
CCNC(=O)CCc1nc(-c2ccccc2)c(-c2ccccc2)o1    2.67
O=C(CCc1nc(-c2ccccc2)c(-c2ccccc2)o1)NC1CC1 [Compound A-22]    0.8
CNC(=O)CCc1nc(-c2ccccc2)c(-c2ccccc2)o1    2.3

Note: attention shifts to another entry.
**Q:** Recorded Sensory evaluation for CC(Sc1nc(-c2ccccc2)c(-c2ccccc2)o1)C(=O)NC1CC1 (centres unmarked) , please?
**A:** 5.38

====

assayed_system: human TRPM8 receptor (Homo sapiens)
Construct: expressed in transfected cells; host or cells: HEK293, stably transfected, tetracycline-inducible expression
experimental_details: Assay on TRPM8 modulators: Ca2+-sensitive dye (Fluo-4) fluorescence in HEK293-TRPM8 test cells
Format: cell-based
measurement_setup: Table 7; HEK293-TRPM8 cells; read-out: TRPM8 EC50
outcome_measure: EC50 (µM)

Look over these answered cases.
CCC(Sc1nnc(-c2ccccc2)c(-c2ccccc2)n1)C(=O)N(C)C (centres unmarked) [Compound B-05]    0.1
CNC(=O)C(C)Sc1cnc(-c2ccccc2)c(-c2ccccc2)n1 (centres unmarked) [Compound B-02]    0.08
CNC(=O)C(C)Sc1nnc(-c2ccccc2)c(-c2ccccc2)n1 (centres unmarked) [Compound B-11]    1.43

P. CC(Sc1nnc(-c2ccccc2)c(-c2ccccc2)n1)C(=O)N1CCCC1 (centres unmarked) [Compound B-18]
Q. CC(Sc1nnc(-c2ccccc2)c(-c2ccccc2)n1)C(=O)NC1CC1 (centres unmarked) [Compound B-01]
**Q:** Pick one, P or Q : lowest reported EC50. Answer by stating the label of the chosen item.
**A:** Q

====

assayed_system: human TRPM8 receptor (Homo sapiens, UniProt Q7Z2W7)
Construct: expressed in transfected cells; host or cells: HEK293, stably transfected, tetracycline-inducible expression
experimental_details: Assay on TRPM8 modulators: Ca2+-sensitive dye (Fluo-4) fluorescence in HEK293-TRPM8 test cells
Format: cell-based
measurement_setup: Table 6; HEK293-TRPM8 cells; read-out: TRPM8 EC50
pEC50: −log10 of the molar value.
outcome_measure: pEC50

Look over these answered cases.
CCNC(=O)CSc1nc(-c2ccccc2)c(-c2ccccc2)o1    5.23
CCCNC(=O)C(C)Sc1nc(-c2ccccc2)c(-c2ccccc2)o1 (stereo not shown)    5.29
CNC(=O)C(C)Sc1nc(C)c(-c2ccccc2)o1 (stereo not shown)    5.64
CCNC(=O)CCc1nc(-c2ccccc2)c(-c2ccccc2)o1    6.82
CC(Sc1nc(-c2ccccc2)c(-c2ccccc2)o1)C(=O)NC1CC1 (stereo not shown)    5.67

a. CNC(=O)C(C)Sc1nc(-c2ccccc2)c(-c2ccccc2)o1 (stereo not shown) [Compound A-02]
b. CSCC(=O)N1CCCCC1c1nc(-c2ccc(C)cc2)co1 (stereo not shown)
c. CCC(Sc1nc(-c2ccccc2)c(-c2ccccc2)o1)C(=O)NC (stereo not shown)
d. O=C(CSc1nc(-c2ccccc2)c(-c2ccccc2)o1)NC1CC1
**Q:** Ascending by pEC50, please. The response must list the labels following the requested ordering.
**A:** c, d, b, a
(c: 5.81, d: 6.47, b: 6.96, a: 8.00)

====

assayed_system: human TRPM8 receptor (Homo sapiens, UniProt Q7Z2W7)
Construct: expressed in transfected cells; host or cells: HEK293, stably transfected, tetracycline-inducible expression
experimental_details: Assay on TRPM8 modulators: Ca2+-sensitive dye (Fluo-4) fluorescence in HEK293-TRPM8 test cells
Type: cell-based
measurement_setup: Table 8; HEK293-TRPM8 cells; read-out: TRPM8 EC50
pEC50: −log10 of the molar value.
outcome_measure: pEC50

CN(C(=O)CSc1nc(-c2ccccc2)c(-c2ccccc2)o1)C1CC1    4.74
CC(Sc1nc(-c2ccccc2)c(-c2ccccc2)o1)C(=O)NC1CC1 (stereo not shown)    5.67
CC(=O)NCCc1nc(-c2ccccc2)c(-c2ccccc2)o1    4.95
CNC(=O)C(C)Sc1nc(-c2ccccc2)c(-c2ccccc2)o1 (stereo not shown) [Compound A-02]    8.00
CNC(=O)C(C)Sc1nc(-c2ccccc2)c(-c2ccccc2)o1 (stereo not shown) [Compound A-03]    8.00

1. CCNC(=O)CSc1nc(-c2ccccc2)c(-c2ccccc2)o1
2. CCNC(=O)CCc1nc(-c2ccccc2)c(-c2ccccc2)o1
3. O=C(CSc1nc(-c2ccccc2)c(-c2ccccc2)o1)NC1CC1
4. CNC(=O)C(C)Sc1nc(C)c(-c2ccccc2)o1 (stereo not shown)
**Q:** Ascending by pEC50, please. The response must list the labels following the requested ordering.
**A:** 1, 4, 3, 2
(1: 5.23, 4: 5.64, 3: 6.47, 2: 6.82)

====

experimental_details: Sensory tasting of cooling intensity by trained panelists, WS-3 as reference
Format: in vivo, human
measurement_setup: Table 6; cooling intensity, 5 ppm in 5% sugar solution, rated after one minute, scale 1 (very weak) to 9 (very strong)
outcome_measure: Sensory evaluation
Respond using a number only.

CCC(Sc1nc(-c2ccccc2)c(-c2ccccc2)o1)C(=O)NC (centres unmarked) [Compound A-09]    4.66
CNC(=O)[C@H]1C[C@@H]1c1nc(-c2ccccc2)c(-c2ccccc2)o1 (racemic) [Compound A-39]    0.7
CNC(=O)C(C)Sc1nc(C)c(-c2ccccc2)o1 (centres unmarked) [Compound A-05]    1.1
O=C(CCc1nc(-c2ccccc2)c(-c2ccccc2)o1)NC1CC1 [Compound A-18]    0.71

**Q:** Recorded Sensory evaluation for CNC(=O)[C@H]1C[C@H]1c1nc(-c2ccccc2)c(-c2ccccc2)o1 (racemic) [Compound A-04] , please?
**A:** 0.5

**Q:** Recorded Sensory evaluation for CCSc1nc(-c2ccccc2)c(-c2ccccc2)o1 [Compound A-55, 2-ethylsulfanyl-4,5-diphenyl-oxazole] , please?
**A:** 0.59

**Q:** Recorded Sensory evaluation for CCCNC(=O)C(C)Sc1nc(-c2ccccc2)c(-c2ccccc2)o1 (centres unmarked) [Compound A-12] , please?
**A:** 1.26

**Q:** Recorded Sensory evaluation for CC(Sc1nc(-c2ccccc2)c(-c2ccccc2)o1)C(N)=O (centres unmarked) [Compound A-20] , please?
**A:** 0.81

====

assayed_system: human TRPM8 receptor (Homo sapiens, UniProt Q7Z2W7)
Construct: expressed in transfected cells; host or cells: HEK293, stably transfected, tetracycline-inducible expression
experimental_details: Assay on TRPM8 modulators: Ca2+-sensitive dye (Fluo-4) fluorescence in HEK293-TRPM8 test cells
Format: cell-based
measurement_setup: EC50 value, TRPM8 activation, HEK293-TRPM8 cells, 6 to 10 concentrations, logistic curve fitting
Experimental: The starting point for cloning the human TRPM8 receptor is an LnCaP cDNA bank. […] A test similar to the test already described in the literature by Behrendt H. J. et al, Br. J. Pharmacol. 141, 2004, 737-745, is performed. The agonization or antagonization of the receptor can be quantified using a Ca^2+-sensitive dye (e.g. FURA, Fluo-4 etc.). […] The activity of the active substances in relation to activation of the TRPM8 channel is determined using the assay described. […]
outcome_measure: EC50

**Q:** Recorded EC50 for CNC(=O)C(C)Sc1nnc2c3ccccc3c3ccccc3c2n1 (stereo not shown) , please?
**A:** ≤ 1000 nM
